Biological target: T1, human FLT3 protein (human, UniProt P36888 27-541, limits assumed)
T1 construct: protein coated in the screening ELISA; also called ELISA FLT3
Assay: colorimetric ELISA, periplasmic extract
The reader will find reported ELISA FLT3 (absorbance) values listed item by item below.

BINDER	ELISA FLT3 (absorbance)
FLL122 (VHH, llama anti-FLT3 variable domain; E. coli periplasmic extract) VHH: QVQLQESGGGLVQAGGSLMVSCAASGGTWSSYATGWFRQVPGKERELIAGISRSGGRTYYAESVKGRFTISRDNAKNTVYLQMNTLKPDDTAVYYCAAARYFTSSVVYTSGNDYDYWGQGTQVTVSS	4
FLL34 (VHH, llama anti-FLT3 variable domain; E. coli periplasmic extract) VHH: QVQLQESGGGLVQAGGSLRLSCAASGRTFSSYALGWFRQAPGKEREFVAAISWSGGNTYYADSVKGRFTISRDDAKNTVYLQMDSLKPEDTAVYYCAAGGSTRVVVTTTPVVKYWGQGTQVTVSS	4
FLL27 (VHH, llama anti-FLT3 variable domain; E. coli periplasmic extract) VHH: QVQLQESGGGLVQPGGSLRLSCKASGFTFSSYAMSWVRQAPGKGLEWVSGISSGGYKIGYTDSTKGRFTISRDNAKNTLYLQMNSLNAEDTAVYYCAKGTQWSWALRDSTSRGQGTQVTVSS	4
FLL97 (VHH, llama anti-FLT3 variable domain; E. coli periplasmic extract) VHH: QVQLQESGGGLVQAGGSLRLSCAASGVTFSINYIDWYRQAPGKQREWVAQITRDSNSFYADSVKGRFAVSRDNAKNTVYLQMNSLKPEDTAVYYCRVLSYWGQGTQVTVSS	1.4
FLL177 (VHH, llama anti-FLT3 variable domain; E. coli periplasmic extract) VHH: QVQLQESGGGLVQTGGSLRLSCAASGSTFSRNTMGWFRQAPGKERVFVLGISWSGIRSYYLDSAKARFTISRDNAKNTVYLQMNSLRPEDTAVYYCAAQEGSSPGPYKYWGQGTQVTVSS	4
FLL38 (VHH, llama anti-FLT3 variable domain; E. coli periplasmic extract) VHH: QVQLQESGGGLVQAGGSLRLSCAVSGRTFSGFGTGWFRQAPGKEREFVAAVSWSGGTTEIADSVKGRFTISRDNAKNTVYLQMSSLKPGDTAVYYCAGQVARAYDSRWYSRGDYWGQGTQVTVSS	4
FLL170 (VHH, llama anti-FLT3 variable domain; E. coli periplasmic extract) VHH: QVQLQESGGGLVQAGGSLRLSCAVSGRTFSGFGTGWFRQAPGKEREFVAAISWSGGTTHYADSVKGRFTISRDNAKNTVYLQMNSLKPEDTAVYYCAGQVARAYDSSWYSRGDYWGQGTQVTVSS	4
FLL71 (VHH, llama anti-FLT3 variable domain; E. coli periplasmic extract) VHH: QVQLQESGGGLVQVGGSLMVSCAASGGTFSSYATGWFRQVPGKEREFIAGISRNSGRTYYAESVKGRFTISRDNAKNTVYLQMNTLKPDDTAVYYCAAARYFTRDAVYTSGDDYDYWGQGTQVTVSS	1.9
